The reported measurements were obtained from ChEMBL document CHEMBL3137667.

conditions: human, serum;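 further: human clinical chemistry: moderate when serum ALT or AST reaches 6× upper normal limit or alkaline phosphatase 1.7×, value counts indexed literature references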
RECORDED ENDPOINT: Hepatotoxicity (moderate)

>>> reported_measurement("Cc1cn([C@H]2CC[C@@H](CO)O2)c(=O)[nH]c1=O")
1
>>> reported_measurement("COC(=O)C1=C(C#N)NC(C)=C(C(=O)OC(C)C)C1c1cccc([N+](=O)[O-])c1 (centres undefined)")
3
>>> reported_measurement("Cc1ncc([N+](=O)[O-])n1CC(O)CCl (centres undefined)")
1
>>> reported_measurement("N[C@@H](Cc1cc(I)c(Oc2cc(I)c(O)c(I)c2)c(I)c1)C(=O)O")
1
>>> reported_measurement("COc1cc(NS(=O)(=O)c2ccc(N)cc2)nc(OC)n1")
0
>>> reported_measurement("COc1ccc2[nH]cc(CCNC(C)=O)c2c1")
0
>>> reported_measurement("N[C@@H]1CON=C1O")
3
>>> reported_measurement("Nc1ccn([C@H]2CC[C@@H](CO)O2)c(=O)n1")
5
>>> reported_measurement("COc1cc(/C=C/C(=O)O)ccc1O [FERULATE]")
0
>>> reported_measurement("COc1cc2nc(N3CCN(C(=O)C4CCCO4)CC3)nc(N)c2cc1OC (centres undefined)")
1
>>> reported_measurement("CN(C)[C@@H]1C(O)=C(C(N)=O)C(=O)[C@@]2(O)C(O)=C3C(=O)c4c(O)ccc(Cl)c4[C@@H](O)[C@H]3C[C@@H]12")
0
>>> reported_measurement("COC1=CC(=O)C[C@@H](C)[C@]12Oc1c(Cl)c(OC)cc(OC)c1C2=O")
9
>>> reported_measurement("CCC(Cc1cnc2nc(N)nc(N)c2n1)c1ccc(C(=O)N[C@@H](CCC(=O)O)C(=O)O)cc1 (some centres undefined) [EDATREXATE]")
8
>>> reported_measurement("CCOC(=O)C(C)(CC)Oc1ccc(Cc2ccc(Cl)cc2)cc1 (centres undefined) [BECLOBRATE]")
1
>>> reported_measurement("CCOC(OCC)C(=O)OCC(=O)[C@]1(O)Cc2c(O)c3c(c(O)c2[C@@H](O[C@H]2C[C@H](N)[C@H](O)[C@H](C)O2)C1)C(=O)c1c(OC)cccc1C3=O")
2
>>> reported_measurement("CC(=O)Oc1ccc(C(=C2CCCCC2)c2ccc(OC(C)=O)cc2)cc1")
8
>>> reported_measurement("CCn1nc(C(=O)O)c(=O)c2cc3c(cc21)OCO3")
3
>>> reported_measurement("C[C@]12C/C(=C/O)C(=O)C[C@@H]1CC[C@@H]1[C@@H]2CC[C@@]2(C)[C@H]1CC[C@]2(C)O")
2
>>> reported_measurement("CCOC(=O)/C=C(C)/C=C/C=C(C)/C=C/c1c(C)cc(OC)c(C)c1C [ETRETINATE]")
31
>>> reported_measurement("CC1(C)S[C@@H]2[C@H](N3C(=O)[C@@H](c4ccccc4)NC3(C)C)C(=O)N2[C@H]1C(=O)O")
0
>>> reported_measurement("Cc1[nH]cnc1CSCCNc1ncc(Cc2ccc3c(c2)OCO3)c(=O)[nH]1")
1
>>> reported_measurement("O=C(O)C(=O)O")
1
>>> reported_measurement("COc1cc2c(c(OC)c1OC)-c1ccc(OC)c(=O)cc1[C@@H](NC(C)=O)CC2")
2
>>> reported_measurement("O=C1CC2(CCCC2)CC(=O)N1CCCCN1CCN(c2nsc3ccccc23)CC1")
1
>>> reported_measurement("[N-]=[N+]=O [NITROUS OXIDE]")
1
>>> reported_measurement("NCCCNc1ccc2c3c(nn2CCNCCO)-c2c(O)ccc(O)c2C(=O)c13")
4
>>> reported_measurement("CO/N=C(\\C(=O)N[C@@H]1C(=O)N2C(C(=O)O)=C(COC(N)=O)CS[C@H]12)c1ccco1")
8
>>> reported_measurement("CN(C)C(=O)Oc1cc(OC(=O)N(C)C)cc(C(O)CNC(C)(C)C)c1 (centres undefined)")
1
>>> reported_measurement("CCC(=O)O[C@@H]1CC(=O)O[C@H](C)C/C=C/C=C/[C@H](O)[C@H](C)C[C@H](CC=O)[C@H](O[C@@H]2O[C@H](C)[C@@H](O[C@H]3C[C@@](C)(O)[C@@H](OC(=O)CC)[C@H](C)O3)[C@H](N(C)C)[C@H]2O)[C@H]1OC")
3
